# Experimental target: GAA·TTC duplex repeats in the frataxin gene; radiolabeled PCR product containing a (GAA)6 sequence
# Protocol notes: Quantitative DNase I footprinting on (GAA)6 DNA
# Format: binding
# Study conditions: (GAA)6 DNA, values in text; read-out: apparent dissociation constant (KD)
Measurement kind: pKd
// scale note: pKd = -log10(conc_M); give the bare number

Consider the molecule CN(C)CCCNC(=O)CCNC(=O)c1cc(NC(=O)CCNC(=O)c2nc(NC(=O)c3nc(NC(=O)CCNC(=O)c4cc(NC(=O)c5nc(NC(=O)CCNC(=O)c6cc(NC(=O)c7nccn7C)cn6C)cn5C)cn4C)cn3C)cn2C)cn1C and give its recorded pKd.
8.70

Quickly give me recorded pKd for CN(C)CCCNC(=O)CCNC(=O)c1nc(NC(=O)CCNC(=O)c2cc(NC(=O)c3nc(NC(=O)CCNC(=O)c4cc(NC(=O)c5nccn5C)cn4C)cn3C)cn2C)cn1C
10.00

* * *

# Experimental target: GAA·TTC duplex repeats in the frataxin gene; radiolabeled PCR product containing a (GAA)6 sequence
# Protocol notes: Quantitative DNase I footprinting on (GAA)6 DNA
# Type: binding
# Study conditions: quantitative DNase I footprinting; mean and standard deviation, minimum of two determinations; read-out: Binding affinity (KD)
# Method: Targeting GAA Repeat DNA with Polyamides. β-Alanine linked polyamides FA1-FA6 were synthesized (see Example 6) with sequence, theoretical DNA binding site, theoretical DNA binding site SEQ ID NO: ______) and binding affinity as shown in Table 1. […] Polyamlde Synthesis and Characterization. […] Binding affinities for match and mismatch sites were determined by quantitative DNase I footprinting (Trauger & Dervan, Id). […]
Measurement kind: pKd
In simple prose, pKd is minus the logarithm base ten of a concentration in moles per litre.

Quickly give me recorded pKd for CN(C)CCCNC(=O)CCNC(=O)c1nc(NC(=O)CCNC(=O)c2cc(NC(=O)c3nc(NC(=O)CCNC(=O)c4cc(NC(=O)c5nccn5C)cn4C)cn3C)cn2C)cn1C [FA1, ImPyβImPyβImβDp]
9.96

Tell me its pKd given CN(C)CCCNC(=O)CCNC(=O)c1nc(NC(=O)CCNC(=O)c2cc(NC(=O)c3nc(NC(=O)CCNC(=O)c4cc(NC(=O)c5nc(NC(=O)CCNC(=O)c6cc(NC(=O)c7nc(NC(=O)CCNC(=O)c8cc(NC(=O)c9nccn9C)cn8C)cn7C)cn6C)cn5C)cn4C)cn3C)cn2C)cn1C [FA5, (ImPyβ)4ImβDp] as the entry.
9.70

Hello, please tell me recorded pKd for this one: CN(C)CCCNC(=O)CCNC(=O)c1nc(NC(=O)CCNC(=O)c2cc(NC(=O)c3nc(NC(=O)CCNC(=O)c4cc(NC(=O)c5nc(NC(=O)CCNC(=O)c6cc(NC(=O)c7nc(NC(=O)CCNC(=O)c8cc(NC(=O)c9nc(NC(=O)CCNC(=O)c%10cc(NC(=O)c%11nccn%11C)cn%10C)cn9C)cn8C)cn7C)cn6C)cn5C)cn4C)cn3C)cn2C)cn1C [FA6, (ImPyβ)5ImβDp]
9.66

Respond only with pKd recorded for CN(C)CCCNC(=O)CCNC(=O)c1nc(NC(=O)CCNC(=O)c2cc(NC(=O)c3nc(NC(=O)CCNC(=O)c4cc(NC(=O)c5nc(NC(=O)CCNC(=O)c6cc(NC(=O)c7nccn7C)cn6C)cn5C)cn4C)cn3C)cn2C)cn1C [FA3, (ImPyβ)3ImβDp]
11.52

Cited source: patent US20060270727A1
